assay: Cytotoxicity in MCF-7 cells (72 h treatment, Hoechst 33342 staining, IN Cell Analyzer imaging); type: cell-based, Human; conditions: human; MCF-7 cells, 72 h treatment, 5% FCS, concentrations 0.1, 1, 3, 10 μM; read-out: Cytotoxicity, EC50
READOUT_NAME: EC50 at 72 h (µM)
Give bare numbers, in µM.

Exercise: Identify EC50 at 72 h associated with the compound Cc1c2ccncc2c(C)c2c1[nH]c1ccccc12 [ellipticine]
Solution: 1

###

tested on: Human mammary cancer MCF-7 cells; test: Cytotoxicity in MCF-7 cells (72 h treatment, Hoechst 33342 staining, IN Cell Analyzer imaging); format: cell-based; details: MCF-7 cells, 72 h treatment, 5% FCS, concentrations 0.1, 1, 3, 10 μM
READOUT_NAME: pEC50
Give bare numbers, as −log10 of the molar value.

Exercise: Identify pEC50 associated with the compound Cc1c2ccncc2c(C)c2c1[nH]c1ccc(O)cc12 [9-Hydroxy ellipticine, reference compound]
Solution: 6.05

###

Give measured EC50 at 72 h for each item. Keep answers brief.
test: Cytotoxicity in MCF-7 cells (72 h treatment, Hoechst 33342 staining, IN Cell Analyzer imaging); assay type: cell-based, Human; conditions: human
Don't forget the unit after the value.

# count of solved cases: 4
# COMPOUND, EC50 at 72 h
rows = [
    ("CC(=O)Oc1ccc2c(c1)c1cc3ncccc3nc1n2C(C)=O", "1000 nM"),
    ("COc1ccc2[nH]c3nc4cnccc4cc3c2c1", "17000 nM"),
    ("COc1ccc2[nH]c3nc4cccnc4cc3c2c1", "800 nM"),
    ("c1ccc2c(c1)[nH]c1nc3cnccc3cc12 [Example 2, 10H-indolo[2,3-b][1,7]naphthyridine]", "6000 nM"),
]

Could you now consider this next compound?
Exercise: Identify EC50 at 72 h associated with the compound Cc1ccc2[nH]c3nc4cccnc4cc3c2c1
Solution: 900 nM

###

experiment: Cytotoxicity in MCF-7 cells (72 h treatment, Hoechst 33342 staining, IN Cell Analyzer imaging); assay type: cell-based, Human; conditions: human
READOUT_NAME: EC50 at 72 h (µM)
One number for each entry, in µM.

# COMPOUND, EC50 at 72 h (µM)
data = [
    ("Oc1ccc2[nH]c3nc4cccnc4cc3c2c1 [Example 14, 6H-indolo[2,3-b][1,5]naphthyridin-9-ol]", 5),
    ("CCCn1c2ccc(OC)cc2c2cc3ncccc3nc21 [Example 8]", 13.3),
    ("COc1ccc2[nH]c3nc4cccnc4c(C)c3c2c1 [Example 7]", 14),
]

Could you now consider this next compound?
Exercise: Identify EC50 at 72 h associated with the compound CCCCc1c2ncccc2nc2[nH]c3ccc(OC)cc3c12 [Example 18]
Solution: 1
